Tested on: T. cruzi trypomastigotes (CL Brener strain)
Test: In vitro activity against cell-derived trypomastigotes of T. cruzi (alamar Blue)
Format: cell-based, Trypanosoma cruzi
Conditions: Trypanosoma cruzi, 24 h, read-out: IC50 Trypomastigotes T. cruzi ± SD
measurement.kind: pIC50
As a rule, pIC50 stands for the negative log10 of the concentration, concentration in M.

Prompt: Recall the recorded pIC50 for `Oc1cccc2cccnc12` with T. cruzi trypomastigotes (CL Brener strain) and state it.
Completion: 6.33

Source: paper PMC8433833
